B1: VH:VL chains; a variant is named by its letters at X, in order (parent)
chain 1: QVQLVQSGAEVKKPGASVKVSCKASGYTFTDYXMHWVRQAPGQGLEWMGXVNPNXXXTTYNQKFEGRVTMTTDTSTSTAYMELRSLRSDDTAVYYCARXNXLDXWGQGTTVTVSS
chain 2: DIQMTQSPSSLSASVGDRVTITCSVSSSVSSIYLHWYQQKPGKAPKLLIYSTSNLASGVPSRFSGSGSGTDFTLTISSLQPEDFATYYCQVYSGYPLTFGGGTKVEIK

Variants of: B1
Assay details: yeast display scFab, FACS + sequencing
Endpoint label: non-specific binding call

Mut: DRGGDDWV
Result: no binding

Mut: YRARSFGS
Result: binds

Mut: VKGAGSVV
Result: no binding

Mut: DAGGGDWV
Result: no binding

Mut: VKAGGDSD
Result: no binding

Mut: DEGGTDWV
Result: no binding

Mut: YRAKGAGA
Result: binds

Mut: DAGGGDVV
Result: no binding

Entry VETEGDVA ; non-specific binding call = no binding

Entry DATGGDGY ; non-specific binding call = no binding

Entry VKRGSSGD ; non-specific binding call = binds

Reference for the values: the emibetuzumab library of Makowski et al. (2022)
